Could you please report measured IC50 for the items listed next?
assayed_target: BRD4 (BD1) (Homo sapiens, UniProt O60885)
Construct: A pET28 plasmid containing residues 44–168 of BRD4 (BD1), a 6xHis tag, a TEV protease cleavage site; 6xHis (N, cleaved yes); made in house; host or cells: E. coli Rosetta (D3)
test_description: Competitive HTRF TR-FRET binding assay (displacement of acetylated histone H4 peptide)
condition_notes: 16-point titration 0.1 nM to 10 µM, n = 2; Negative = curve could not be fitted to a sigmoidal curve; read-out: TR-FRET IC50

Data request: What measured IC50 goes with COc1ccc(-n2c(C)nnc2SCC(=O)NCc2ccc(F)c(C)c2)cc1 ?
Data returned: 543 nM

Data request: What measured IC50 goes with CN(C)C(=O)Sc1cc(NC(=O)c2cn(C)c(=O)c3ccccc23)ccc1Cl ?
Data returned: 1040 nM

Data request: What measured IC50 goes with Cc1nnc(NC(=O)CNC(c2ccc(Cl)cc2)c2ccccc2C(C)C)s1 (stereo not shown) ?
Data returned: 23.6 nM

Data request: What measured IC50 goes with CCCc1c(C(=O)N2CCOC(CN(C)C(=O)c3cccn3C)C2)[nH]c(C)c1C(C)=O (stereo not shown) ?
Data returned: 1020 nM

* * *

assayed_target: His6-BRD4 (BD1) (Homo sapiens, UniProt O60885)
Construct: A pET28 plasmid containing residues 44–168 of BRD4 (BD1), a 6xHis tag, a TEV protease cleavage site; made in house; host or cells: E. coli Rosetta (D3)
test_description: Surface plasmon resonance (SPR) single-dose screening
Format: binding
condition_notes: single dose 10 µM, n = 2
observation_type: SPR RESULT

Solved entries:
- compound: "CCn1nnc2cc(C(=O)N3CCC(N(C)C(=O)C4CN(C)CCO4)C3)ccc21 (stereo not drawn)"
  assayed_target: "His6-BRD4 (BD1) (Homo sapiens, UniProt O60885)"
  observation_type: "SPR RESULT"
  experimental_value: "Negative"
- compound: "CCCc1c(C(=O)N2CCOC(CN(C)C(=O)c3cccn3C)C2)[nH]c(C)c1C(C)=O (stereo not drawn)"
  assayed_target: "His6-BRD4 (BD1) (Homo sapiens, UniProt O60885)"
  observation_type: "SPR RESULT"
  experimental_value: "Negative"
- compound: "Cn1ccnc1C1CCN(C(=O)c2nn(C)c(=O)c3ccccc23)C1 (stereo not drawn)"
  assayed_target: "His6-BRD4 (BD1) (Homo sapiens, UniProt O60885)"
  observation_type: "SPR RESULT"
  experimental_value: "Negative"
- compound: "Cc1ncc(C(=O)NCCn2cc(Cn3c(C)nc4ccccc43)nn2)c(=O)[nH]1"
  assayed_target: "His6-BRD4 (BD1) (Homo sapiens, UniProt O60885)"
  observation_type: "SPR RESULT"
  experimental_value: "Negative"
- compound: "Cc1nc(=O)c(CCC(=O)N2CC3(CCCC3)c3ccccc32)c[nH]1"
  assayed_target: "His6-BRD4 (BD1) (Homo sapiens, UniProt O60885)"
  observation_type: "SPR RESULT"
  experimental_value: "Positive"

Data request: What measured SPR RESULT goes with CN(C)C(=O)Sc1cc(NC(=O)c2cn(C)c(=O)c3ccccc23)ccc1Cl ?
Data returned: Positive

Data request: What measured SPR RESULT goes with CC(NS(=O)(=O)c1cccc(-c2nnnn2C)c1)C1CCN(Cc2ccccc2)C1 (stereo not drawn) ?
Data returned: Positive

Data request: What measured SPR RESULT goes with COc1ccc(-n2c(C)nnc2SCC(=O)Nc2ccc(C)c(Cl)c2Cl)cc1 [Compound 12] ?
Data returned: Positive

Cited source for all entries: paper PMC12316891
